Provide the reported CC50 of each item.
Tested on: MRC5
Assay: MRC5 CC50 (uM) Cytotoxicity
Format: functional
Settings: Homo sapiens

compound NCCN(C(=O)c1ccc(Cl)cc1Cl)c1ccc(OCc2ccc(Cl)cc2)cc1 , CC50 observed: 4 µM

compound CS(=O)(=O)c1ccc(C(=O)N(CC2CCCO2)c2nc3ccccc3s2)cc1[N+](=O)[O-] (stereo not given) , CC50 observed: 6.2 µM

compound Cc1nc(-c2ccccn2)nc(N(C)CCc2ccccc2)c1Cl , CC50 observed: 21.7 µM

compound CN1CCN(S(=O)(=O)c2ccc(-c3ccc4c(Nc5ncc(Cl)cn5)ccnc4c3)cc2)CC1 , CC50 observed: > 32 µM

compound O=C(Nc1c(O)cccc1-c1nc2c(C(=O)O)cccc2o1)c1cc(-c2ccccc2)on1 , CC50 observed: > 32 µM

====

Test system: MRC5
Assay: MRC5 CC50 (uM) Cytotoxicity
Type: functional
Settings: Homo sapiens
property_label: CC50 (µM)
Report only the number, with the unit µM understood.

compound CC1=Nc2ccc(Cl)cc2C(O)(c2ccc(C)cc2)N1CCN1CCCCC1 (stereo not given) , CC50 observed: 16

compound CN1CCCN(C(c2ccccc2)c2ccc(Cl)cc2)CC1 (stereo not given) , CC50 observed: 31.8

compound CCCCN(CCCC)c1c(C#N)cc(S(=O)(=O)Nc2ccccc2)cc1C#N , CC50 observed: 3.9

compound c1ccc(Oc2ccc(-c3cncc(-c4ccc5[nH]ccc5c4)n3)cc2)cc1 , CC50 observed: 20

====

System: Dengue virus
Assay: AntiDengue activity HCI DV3/A549 IC50 (uM)
Format: functional, organism-based
Provide the reported pIC50 of each item.
Scale for pIC50: -log10 of concentration given in mol/L; no unit attached.

compound CC(C)(C)C(=O)N(CCCCCCN1C[C@H](O)[C@@H](O)[C@H](O)[C@H]1CO)C1CCCCCC1 , pIC50 observed: 7.10

compound CC(C)(C)OC(=O)N1CCN(c2nccc(-c3ccc(-c4ccc(Cl)cc4)s3)n2)CC1 , pIC50 observed: 5.70

compound O=C1[C@@H](Oc2ccccc2)[C@@H](c2ccc(Cl)cc2)N1CCn1cnc2c(NCc3ccccc3)ncnc21 , pIC50 observed: 5.40

compound OC[C@H]1O[C@@H](n2c3ccc(Cl)cc3c3c(-c4cc5ccccc5o4)ncnc32)C(O)[C@H]1O (stereo not given in full) , pIC50 observed: 5.52

====

System: Plasmodium falciparum
Assay: Antimalarial activity: Asexual Blood Stage Plasmodium falciparum 3D7 IC50 (uM)
Type: functional, organism-based
property_label: pIC50
Scale for pIC50: -log10 of concentration given in mol/L; no unit attached.

Bench note, Plasmodium falciparum: COc1cncc(-c2cncc(N3CCN(c4ccncc4)CC3)n2)c1 , pIC50 reads 7.00

Bench note, Plasmodium falciparum: COc1ccc(CCN2CCC(NCc3cccc(N(C)C)c3)CC2)cc1 , pIC50 reads 5.92

Bench note, Plasmodium falciparum: Nc1nccc2ccc(-c3ccc4nccn4c3)cc12 , pIC50 reads 6.80

Bench note, Plasmodium falciparum: NS(=O)(=O)c1cccc(-c2ccc3ncc(N4CCOCC4)nc3c2)c1 , pIC50 reads 5.82

Bench note, Plasmodium falciparum: O=S(=O)(c1ccc(Cl)cc1)N1CCN(C(=S)NCc2ccco2)CC1 , pIC50 reads 5.92

Bench note, Plasmodium falciparum: O=C(Nc1cccc(Cl)c1)c1cnc(N2CCN(c3ccncc3)CC2)c(Cl)c1 , pIC50 reads 6.08

Bench note, Plasmodium falciparum: CC(C(=O)N1CCCC1)N1CCN(S(=O)(=O)c2ccc(C(C)(C)C)cc2)CC1 (stereo unspecified) , pIC50 reads 6.05

Bench note, Plasmodium falciparum: O=C(Nc1ccccc1)c1ccc(-c2cc3ccncc3cc2OC2CCNCC2)s1 , pIC50 reads 6.24

Bench note, Plasmodium falciparum: Cc1cc(NCC(C)C)c2[nH]nc(-c3ccccc3)c2n1 , pIC50 reads 5.85
